- target-desc: human kinase Mps-1 (Homo sapiens (Human))
- Sequence (P33981 whole entry): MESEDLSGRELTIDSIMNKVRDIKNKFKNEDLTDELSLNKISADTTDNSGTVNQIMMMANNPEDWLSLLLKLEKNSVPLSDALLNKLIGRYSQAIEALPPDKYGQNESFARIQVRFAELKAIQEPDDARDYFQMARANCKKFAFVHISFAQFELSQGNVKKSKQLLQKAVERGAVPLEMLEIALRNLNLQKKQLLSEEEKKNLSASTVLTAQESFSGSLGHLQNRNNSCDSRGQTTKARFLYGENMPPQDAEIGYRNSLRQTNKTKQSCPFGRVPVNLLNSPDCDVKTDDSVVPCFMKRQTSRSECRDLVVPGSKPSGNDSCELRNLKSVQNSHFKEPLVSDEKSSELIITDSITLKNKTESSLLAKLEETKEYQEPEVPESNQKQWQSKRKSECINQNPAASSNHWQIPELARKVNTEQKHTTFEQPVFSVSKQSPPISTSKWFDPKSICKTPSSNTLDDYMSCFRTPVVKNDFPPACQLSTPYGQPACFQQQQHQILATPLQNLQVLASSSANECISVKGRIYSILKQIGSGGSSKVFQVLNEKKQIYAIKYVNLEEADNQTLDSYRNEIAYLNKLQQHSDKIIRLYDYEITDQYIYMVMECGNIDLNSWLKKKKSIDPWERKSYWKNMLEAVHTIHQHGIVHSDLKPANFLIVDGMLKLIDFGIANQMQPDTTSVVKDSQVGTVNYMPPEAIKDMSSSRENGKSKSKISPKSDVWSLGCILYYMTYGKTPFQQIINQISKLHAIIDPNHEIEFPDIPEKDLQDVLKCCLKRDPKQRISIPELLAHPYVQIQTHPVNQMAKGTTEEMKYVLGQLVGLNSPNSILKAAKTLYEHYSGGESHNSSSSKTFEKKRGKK
- test-description: Mps-1 kinase assay (TR-FRET)
- test-settings: N-terminally GST-tagged human full length recombinant Mps-1, 10 μM ATP
observed-property: pIC50
Interpret pIC50 as the negative base-10 log of the concentration measured in mol/L.

Query :: Look at this compound and give its reported pIC50. Cc1cc(-c2cnc3c(NCCC(F)(F)F)cc(C(F)(F)c4cccc(F)c4)nn23)ccc1C(=O)NC1CC1 [Example 6]
Result :: 9.15

====

- test-description: In vitro metabolic stability in rat hepatocytes (including calculation of hepatic in vivo blood clearance)
- Format: in vitro ADME
- test-settings: Han Wistar, hepatocytes (freshly isolated, suspension), read-out: CL (hepatic in vivo blood clearance) (converted)
Group membership follows CLhep predicted at 1 μM per the scheme low = under 30 mL/min/kg, mid = from 30 mL/min/kg up to 40 mL/min/kg, high = 40 mL/min/kg and over

Example results:
{"compound": "COc1ccc(C(=O)c2cc(NCCC(F)(F)F)c3ncc(-c4ccc(C(=O)NC5CC5)c(C)c4)n3n2)cc1F", "class-name": "low"}
{"compound": "COc1ccc(Cc2cc(NCCC(F)(F)F)c3ncc(-c4ccc(C(=O)NC5CC5)c(C)c4)n3n2)cc1F [Comparative Example 1, reference compound]", "class-name": "high"}
{"compound": "C=C(c1ccc(OC)c(F)c1)c1cc(NCCC(F)(F)F)c2ncc(-c3ccc(C(=O)NC4CC4)c(C)c3)n2n1", "class-name": "high"}

Query :: Kindly state the category for this compound: COc1ccc(Cc2cc(NCCC(F)(F)F)c3ncc(-c4ccc(C(=O)NC5CC5)c(C)c4)n3n2)cc1 [Comparative Example 5, reference compound]
Result :: high

Query :: What about this compound? C=C(c1cc(NCCC(F)(F)F)c2ncc(-c3ccc(C(=O)NC4CC4)c(C)c3)n2n1)c1cccc(F)c1F
Result :: mid

Query :: Next: C=C(c1cc(NCCC(F)(F)F)c2ncc(-c3ccc(C(=O)NC4CC4)c(C)c3)n2n1)c1cc(F)ccc1O
Result :: high

Query :: Now consider Cc1cc(-c2cnc3c(NCCC(F)(F)F)cc(C(O)c4cccc(F)c4O)nn23)ccc1C(=O)NC1CC1 (racemic) and answer again.
Result :: high

Query :: Would you mind doing C=C(c1ccc(OC)cc1)c1cc(NCCC(F)(F)F)c2ncc(-c3ccc(C(=O)NC4CC4)c(C)c3)n2n1 as well?
Result :: mid

Query :: Try COc1ccc(C(F)(F)c2cc(NCCC(F)(F)F)c3ncc(-c4ccc(C(=O)NC5CC5)c(C)c4)n3n2)cc1 next.
Result :: mid

Query :: Follow-up entry: Cc1cc(-c2cnc3c(NCCC(F)(F)F)cc(C(F)(F)c4cccc(F)c4F)nn23)ccc1C(=O)NC1CC1
Result :: low

Query :: What would you report for Cc1cc(-c2cnc3c(NCCC(F)(F)F)cc(C4(c5cccc(F)c5F)CC4)nn23)ccc1C(=O)NC1CC1 ?
Result :: mid

====

- test-description: In vitro metabolic stability in rat hepatocytes (including calculation of hepatic in vivo blood clearance)
- Type: in vitro ADME
- test-settings: Han Wistar, hepatocytes (freshly isolated, suspension), read-out: CL (hepatic in vivo blood clearance) (converted)
- Method: Investigation of In Vitro Metabolic Stability in Rat Hepatocytes (Including Calculation of Hepatic In Vivo Blood Clearance (CL)) Hepatocytes from Han Wistar rats were isolated via a 2-step perfusion method. […] Cell viability was determined by trypan blue exclusion. […] Samples were frozen at −20° C. over night, after subsequently centrifuged for 15 minutes at 3000 rpm and the supernatant was analyzed with an Agilent 1200 HPLC-system with LCMS/MS detection. […]
compounds and their reported CLhep predicted at 1 μM
Value and unit, in that order.

Reference set (3 entries):
{"compound": "COc1cccc(C(=O)c2cc(NCCC(F)(F)F)c3ncc(-c4ccc(C(=O)NC5CC5)c(C)c4)n3n2)c1", "measured": "51.7 mL/min/kg"}
{"compound": "Cc1cc(-c2cnc3c(NCCC(F)(F)F)cc(C(O)c4cc(F)ccc4F)nn23)ccc1C(=O)NC1CC1 (racemic)", "measured": "38.3 mL/min/kg"}
{"compound": "COc1ccc(C(=O)c2cc(NCCC(F)(F)F)c3ncc(-c4ccc(C(=O)NC5CC5)c(C)c4)n3n2)cc1", "measured": "20 mL/min/kg"}

Query :: Find the recorded CLhep predicted at 1 μM belonging to C=C(c1cccc(F)c1)c1cc(NCCC(F)(F)F)c2ncc(-c3ccc(C(=O)NC4CC4)c(C)c3)n2n1 and report it.
Result :: 36.7 mL/min/kg
